EXPERIMENTAL DETAILS: qHTS for Inhibitors of human tyrosyl-DNA phosphodiesterase 1 (TDP1): qHTS in cells in absence of CPT; further: nearly all actives have a fitted effect of over 55% in size
CONDITION CONTEXT: DT40 Tdp1-/- hTDP1 cells, no CPT, ATP luminescence, 48 h
Screen size: about 420,000 compounds; about 64,000 (15%) were called active. Not shown: some 27% with an inconclusive outcome. A selection follows.

{"columns": ["COMPOUND STRUCTURE", "outcome"],
 "data": [
  ["COc1ccccc1C(=O)CSc1cccc[n+]1[O-]", "inactive"],
  ["C=CCN1C(=O)C2(OCCCO2)c2cccc(Cl)c21", "inactive"],
  ["CCOc1ccccc1NC(=O)C1CCN(S(=O)(=O)c2c(C)nn(C)c2C)CC1", "inactive"]
]}

###

EXPERIMENTAL DETAILS: qHTS for Inhibitors of human tyrosyl-DNA phosphodiesterase 1 (TDP1): qHTS in cells in absence of CPT; further: nearly all actives have a fitted effect of over 55% in size
CONDITION CONTEXT: DT40 Tdp1-/- hTDP1 cells, no CPT, ATP luminescence, 48 h
Out of some 420,000 compounds screened, about 64,000 (15%) were called active. Not shown: some 27% with an inconclusive outcome. The call rests on the fitted dose curve; in most records, active means well fitted inhibition curve with a large enough effect; inconclusive means small, poorly fitted or top-dose-only effect; inactive means flat fitted curve, though single readings scatter. The list is a sample of the results.
Labels: true = active, false = inactive

{"columns": ["MOLECULE", "CAT"],
 "data": [
  ["N#CCCN(C(=O)COC(=O)C1CCN(c2ccc(C(F)(F)F)cn2)CC1)c1ccc(F)cc1", "false"],
  ["Cc1cc2cc3c(N)[nH]nc3nc2cc1C", "false"],
  ["CCC(C)[C@H]1COCCS(=O)(=O)N1Cc1ccc(C)cc1 (stereo partly drawn)", "false"],
  ["COc1ccc(C(=O)NC2CC(C)(C)NC(C)(C)C2)cc1OC", "false"],
  ["CSCC[C@H](NC(=O)N1CCn2c1nc1ccccc12)C(=O)NCc1ccc2c(c1)OCO2", "false"],
  ["CCn1c(CNC(=O)c2ccc(OC)c(OC)c2)nnc1SCC(=O)Nc1ccccc1", "false"],
  ["COc1ccc(S(=O)(=O)N2CCN(c3cnccn3)CC2)cc1", "false"],
  ["COCCN(C(=O)c1ccccc1F)c1c(N)n(Cc2ccccc2)c(=O)[nH]c1=O", "false"],
  ["CC(C)(C)OC(=O)NC(Cc1ccccc1)C(=O)NC(CSC1CCCCO1)C(=O)NN (stereo not drawn)", "false"],
  ["COc1ccc(-c2csc3ncnc(N4CCN(S(=O)(=O)c5ccccc5C#N)CC4)c23)cc1", "true"],
  ["Cc1ccc(-c2ccc(CN3C(C)C(=O)N(Cc4cn(CCC5OCCCO5)nn4)CCS3(=O)=O)cc2)cc1 (stereo not drawn)", "true"],
  ["Cc1nn(C)cc1CNC(=O)Nc1ccc(Cl)cc1", "false"],
  ["COc1ccc(C)cc1-n1nnnc1SCc1nc2ccccc2c(=O)[nH]1", "true"],
  ["CCCCn1c(N)c(N(CC)C(=O)/C=C/c2ccco2)c(=O)[nH]c1=O", "false"],
  ["Nc1nnc(C2CCCC2)s1", "false"],
  ["CC1=CC(=NNS(=O)(=O)c2ccc([N+](=O)[O-])cc2)CC(C)(C)C1", "false"],
  ["Cn1c(C(=O)OC(C(=O)NC2CCCCC2)c2ccccn2)cc2sccc21 (stereo not drawn)", "false"],
  ["O=C(CS(=O)(=O)c1ccccc1)Nc1ccc(S(=O)(=O)Nc2ccccn2)cc1", "false"],
  ["Cc1ccc(-c2ccc(CN3C(C(C)C)C(=O)N(Cc4cn(CCC5OCCCO5)nn4)CCS3(=O)=O)cc2)cc1 (stereo not drawn)", "true"],
  ["COc1ccc(CC(=O)N[C@@H]2c3cc(OC)c(OC)cc3C[C@H]2OCc2ccccc2)cc1", "false"],
  ["CCc1cccc(NC(=O)COC(=O)C2CCN(c3ccc(C(F)(F)F)cn3)CC2)c1", "true"],
  ["COC(C[C@@H](O)C[C@H](O)[C@H](C)OCc1ccccc1)OC", "false"],
  ["COCCn1c(SCc2nc3cc(OC)c(OC)cc3c(=O)[nH]2)nnc1-c1ccncc1", "false"],
  ["O=C(C1CCN(CC2CCCCC2)CC1)N1CCCC1", "false"],
  ["COc1ccccc1C(=O)NCCC(=O)NN1C(=O)NC2(CCCCC2)C1=O", "false"],
  ["COc1cc(C(=O)NCC2(c3ccccc3)CCCC2)ccc1OC(C)C", "true"],
  ["COc1ccc(C2(CNC(=O)Cc3ccc(OC)c(OC)c3)CCCC2)cc1", "true"],
  ["O=c1c2ccccc2nc(CSc2nnnn2-c2ccccc2)n1-c1ccccc1", "false"],
  ["COc1ccc(CC(=O)NC2CCSc3ccccc32)cc1OC (stereo not drawn)", "false"],
  ["CCOc1ccc(CCNC(=O)COC(=O)C2CCN(c3ccc(C(F)(F)F)cn3)CC2)cc1OCC", "false"],
  ["Cc1ccc(NS(=O)(=O)c2c(C)[nH]c(=O)[nH]c2=O)cc1C", "false"],
  ["CCOc1ccc(NC(=O)C2CC(=O)N=C(N)S2)cc1 (stereo not drawn)", "false"],
  ["COc1ccccc1OCC(=O)Nc1ccccc1C(=O)NC1CC1", "false"],
  ["COc1cc(OC)cc(C2=Cc3ccccc3C(CC(=O)c3ccco3)N2c2ccc(-c3cnc(OC)nc3)cc2)c1 (stereo not drawn)", "false"],
  ["N#Cc1ccccc1S(=O)(=O)N1CCN(Cc2c(O)ccc3ccccc23)CC1", "false"],
  ["CN(C)Cc1c(O)ccc2c(=O)c(-c3ccccc3Cl)coc12", "false"],
  ["Cc1ccc(-c2ccc(CN3C(C(C)C)C(=O)N(Cc4cn(CCC5OCCO5)nn4)CCS3(=O)=O)cc2)cc1 (stereo not drawn)", "true"],
  ["CCN(CC)CCn1cnc2c1c(=O)n(CCOC(=O)c1cc(OC)c(OC)c(OC)c1)c(=O)n2C", "false"]
]}

###

EXPERIMENTAL DETAILS: qHTS for Inhibitors of human tyrosyl-DNA phosphodiesterase 1 (TDP1): qHTS in cells in absence of CPT; further: nearly all actives have a fitted effect of over 55% in size
CONDITION CONTEXT: DT40 Tdp1-/- hTDP1 cells, no CPT, ATP luminescence, 48 h
In all, about 420,000 compounds went through this assay and about 64,000 (15%) were called active. Not shown: some 27% with an inconclusive outcome. Calls come from the whole dose curve; as a rule, active = well fitted inhibition curve with a large enough effect; inconclusive = small, poorly fitted or top-dose-only effect; inactive = flat fitted curve, though single readings scatter. These entries were drawn from the full list.
Labels: active, inactive

{"columns": ["COMPOUND", "CAT"],
 "data": [
  ["CCOCCCNC(=O)C1(O)c2cc(Br)ccc2NC(=O)N1c1ccc(C)c(C)c1 (stereo not given)", "inactive"],
  ["CCCCN(C(=O)c1ccc(S(=O)(=O)N2CCOCC2)cc1)C1CCS(=O)(=O)C1 (stereo not given)", "inactive"],
  ["COc1ccccc1CNC(=O)COC(=O)c1cccs1", "inactive"],
  ["COc1cc2nc(NCC(C)c3ccccc3)n3nc(-c4ccccc4)nc3c2cc1OC (stereo not given)", "active"],
  ["O=C(NCc1cccs1)C1CCN(S(=O)(=O)c2ccc3c(c2)OCCO3)CC1", "inactive"]
]}

###

EXPERIMENTAL DETAILS: qHTS for Inhibitors of human tyrosyl-DNA phosphodiesterase 1 (TDP1): qHTS in cells in absence of CPT; further: nearly all actives have a fitted effect of over 55% in size
CONDITION CONTEXT: DT40 Tdp1-/- hTDP1 cells, no CPT, ATP luminescence, 48 h
In all, about 420,000 compounds went through this assay and about 64,000 (15%) were called active. Another 27% or so got no clear call; they are omitted. Calls follow the shape of the dose curve; as a rule, active = well fitted inhibition curve with a large enough effect; inconclusive = small, poorly fitted or top-dose-only effect; inactive = flat fitted curve, though single readings scatter. Only a sample is shown.
Labels: class 1 (active), class 0 (inactive)

{"columns": ["MOLECULE", "CAT"],
 "data": [
  ["COc1ccc(C(C)=O)cc1CSc1nc2nc(C)cc(C)n2n1", "class 0"],
  ["CCCCN(CC)CCCNC(=O)CS(=O)(=O)Cc1nc(-c2cccc(OC)c2)oc1C", "class 0"],
  ["COc1cccc(/C=C2\\SC(=N)N(c3ccc(F)cc3)C2=O)c1", "class 0"],
  ["COc1ccc(NC(=O)CC2C(=O)NC3CCCCC3N2C(=O)c2ccc(F)cc2)cc1 (configuration not stated)", "class 0"],
  ["CC(Sc1nncs1)C(=O)NCc1ccc2c(c1)OCO2 (configuration not stated)", "class 0"],
  ["CC(C)(C)OC(=O)N(Cc1ccccc1)Cc1ccc(OCc2cccc(NC(=O)c3ccccc3)c2)cc1", "class 1"],
  ["O=C(Nc1cc(-c2nc3ccccc3o2)ccc1Cl)c1cc([N+](=O)[O-])ccc1N1CCOCC1", "class 0"],
  ["Cc1ccc(C(=O)NCC2CCCO2)o1 (configuration not stated)", "class 0"],
  ["COc1ccc(S(=O)(=O)NCC2CCCN(C(=O)c3occc3C)C2)cc1 (configuration not stated)", "class 0"],
  ["CC1(C(=O)O)CCC(C(=O)Nc2ccc(Cl)c(Cl)c2)C1(C)C (configuration not stated)", "class 0"],
  ["Cn1cc(S(=O)(=O)N2CCN(c3ccc(F)cc3)CC2)c(=O)n(C)c1=O", "class 0"],
  ["Cc1c(C(=O)NCCN2C(=O)S/C(=C\\c3cccs3)C2=O)cccc1[N+](=O)[O-]", "class 0"],
  ["CNC(=O)NC(=O)C(OC(=O)c1cccc(S(=O)(=O)N2CCCCC2)c1)c1ccccc1 (configuration not stated)", "class 0"],
  ["COc1cccc(-c2nc(CS(=O)(=O)CC(=O)N3CCN(c4cc(C)ccc4C)CC3)c(C)o2)c1", "class 1"],
  ["CC(=O)Nc1cc2ccc(OC(C)=O)cc2oc1=O", "class 0"],
  ["COc1ccc(N(CC(=O)N2CCOCC2)S(=O)(=O)c2ccccc2)cc1Cl", "class 0"],
  ["CCOC(=O)c1cnc2nc(SCc3ccccc3Cl)[nH]n2c1=O", "class 0"]
]}

Where these numbers come from: PubChem BioAssay AID686978
